System: Mycobacterium tuberculosis
Test: Antitubercular activity against Mycobacterium tuberculosis H37Rv assessed as bacterial growth inhibition by MABA relative to control
Type: functional

{"compound": "O=C1CCC(=O)N1c1ccc(-c2csc(N/C=C\\c3ccccc3[N+](=O)[O-])n2)cc1", "MIC": "100 µg/mL"}
{"compound": "O=C1CCC(=O)N1c1ccc(-c2csc(N/C=C\\c3ccc(O)cc3)n2)cc1", "MIC": "100 µg/mL"}
{"compound": "COc1cc(/C=C\\Nc2nc(-c3ccc(N4C(=O)c5ccccc5C4=O)cc3)cs2)cc(OC)c1OC", "MIC": "6.25 µg/mL"}
{"compound": "NNC(=O)c1ccncc1 [ISONIAZID]", "MIC": "1.6 µg/mL"}
{"compound": "O=C1CCC(=O)N1c1ccc(-c2csc(N/C=C\\c3cccc(Cl)c3)n2)cc1", "MIC": "25 µg/mL"}
{"compound": "Nc1nc(-c2ccc(N3C(=O)CCC3=O)cc2)cs1", "MIC": "6.25 µg/mL"}
{"compound": "COc1cc(/C=C\\Nc2nc(-c3ccc(NC(=O)c4ccccc4)cc3)cs2)cc(OC)c1OC", "MIC": "25 µg/mL"}
{"compound": "COc1cc(/C=C\\Nc2nc(-c3ccc(N4C(=O)CCC4=O)cc3)cs2)cc(OC)c1OC", "MIC": "25 µg/mL"}
{"compound": "CC[C@@H](CO)NCCN[C@@H](CC)CO [ETHAMBUTOL]", "MIC": "3.2 µg/mL"}
{"compound": "O=C(O)c1cn(C2CC2)c2cc(N3CCNCC3)c(F)cc2c1=O [CIPROFLOXACIN]", "MIC": "3.12 µg/mL"}
{"compound": "O=C(Nc1ccc(-c2csc(N/C=C\\c3ccc(O)cc3)n2)cc1)c1ccccc1", "MIC": "6.25 µg/mL"}
{"compound": "O=C(Nc1ccc(-c2csc(N/C=C\\c3ccc(F)cc3)n2)cc1)c1ccccc1", "MIC": "12.5 µg/mL"}
{"compound": "O=C(Nc1ccc(-c2csc(N/C=C\\c3cccc(Cl)c3)n2)cc1)c1ccccc1", "MIC": "25 µg/mL"}
{"compound": "O=C(Nc1ccc(-c2csc(N/C=C\\c3ccccc3[N+](=O)[O-])n2)cc1)c1ccccc1", "MIC": "6.25 µg/mL"}
{"compound": "CN[C@@H]1[C@H](O[C@H]2[C@H](O[C@H]3[C@H](O)[C@@H](O)[C@H](N=C(N)N)[C@@H](O)[C@@H]3N=C(N)N)O[C@@H](C)[C@]2(O)C=O)O[C@@H](CO)[C@H](O)[C@H]1O [STREPTOMYCIN]", "MIC": "0.8 µg/mL"}
{"compound": "O=C1CCC(=O)N1c1ccc(-c2csc(N/C=C\\c3ccc(F)cc3)n2)cc1", "MIC": "12.5 µg/mL"}
{"compound": "Nc1nc(-c2ccc(N3C(=O)c4ccccc4C3=O)cc2)cs1", "MIC": "12.5 µg/mL"}
{"compound": "O=C1c2ccccc2C(=O)N1c1ccc(-c2csc(N/C=C\\c3ccccc3[N+](=O)[O-])n2)cc1", "MIC": "25 µg/mL"}
{"compound": "CO[C@H]1/C=C/O[C@@]2(C)Oc3c(C)c(O)c4c(O)c(c(/C=N/N5CCN(C)CC5)c(O)c4c3C2=O)NC(=O)/C(C)=C\\C=C\\[C@H](C)[C@H](O)[C@@H](C)[C@@H](O)[C@@H](C)[C@H](OC(C)=O)[C@@H]1C [RIFAMPIN]", "MIC": "0.8 µg/mL"}
{"compound": "NC(=O)c1cnccn1 [PYRAZINAMIDE]", "MIC": "3.12 µg/mL"}
{"compound": "Nc1nc(-c2ccc(NC(=O)c3ccccc3)cc2)cs1", "MIC": "50 µg/mL"}

Measured values drawn from ChEMBL document CHEMBL4699610 for this set.
